# system_tested: Cynomolgus monkey CD1a expressed on HEK-293 cells (Cynomolgus monkey)
# assay_details: flow, HEK-293, Ab 0.01 µg/ml
Record form. Attribute: Fluorescence Intensity Geomean (normalized to background) (fold over background). Fill in for each entry.
# answer = number (no unit)

Which value of Fluorescence Intensity Geomean (normalized to background) (fold over background) has been reported for 77A (VR11851) (antibody, V domains shown, V regions were 'cloned as either rabbit or mouse full length antibodies'; also called OX77a; antibody 77a) VH: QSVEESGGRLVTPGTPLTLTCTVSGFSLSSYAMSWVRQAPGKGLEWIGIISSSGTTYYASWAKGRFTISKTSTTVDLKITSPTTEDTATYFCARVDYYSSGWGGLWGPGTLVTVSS VL: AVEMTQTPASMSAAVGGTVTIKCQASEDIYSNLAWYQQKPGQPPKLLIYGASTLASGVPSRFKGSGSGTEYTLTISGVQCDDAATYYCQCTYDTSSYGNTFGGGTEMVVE in the records? 1.7

Which value of Fluorescence Intensity Geomean (normalized to background) (fold over background) has been reported for 111 (VR12113) (antibody, V domains shown, also called OX111) VH: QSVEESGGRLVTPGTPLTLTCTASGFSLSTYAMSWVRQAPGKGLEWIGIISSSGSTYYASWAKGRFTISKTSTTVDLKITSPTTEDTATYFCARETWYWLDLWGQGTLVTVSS VL: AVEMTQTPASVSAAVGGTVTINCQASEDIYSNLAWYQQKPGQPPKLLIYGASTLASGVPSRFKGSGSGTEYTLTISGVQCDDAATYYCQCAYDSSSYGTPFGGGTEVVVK in the records? 8.9

Which value of Fluorescence Intensity Geomean (normalized to background) (fold over background) has been reported for 116 (VR12117) (antibody, V domains shown, also called OX116) VH: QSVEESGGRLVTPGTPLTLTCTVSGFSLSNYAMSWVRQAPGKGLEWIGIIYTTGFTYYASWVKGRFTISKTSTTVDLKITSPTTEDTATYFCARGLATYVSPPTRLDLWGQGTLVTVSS VL: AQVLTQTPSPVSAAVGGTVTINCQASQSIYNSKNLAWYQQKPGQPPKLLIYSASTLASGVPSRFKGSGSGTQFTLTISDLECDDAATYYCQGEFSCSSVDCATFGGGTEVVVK in the records? 1

Which value of Fluorescence Intensity Geomean (normalized to background) (fold over background) has been reported for 110 (VR12112) (antibody, V domains shown, V regions were 'cloned as either rabbit or mouse full length antibodies'; also called OX110; antibody 110) VH: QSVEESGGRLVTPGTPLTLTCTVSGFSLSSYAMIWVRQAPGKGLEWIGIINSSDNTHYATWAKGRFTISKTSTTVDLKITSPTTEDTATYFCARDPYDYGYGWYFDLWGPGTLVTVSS VL: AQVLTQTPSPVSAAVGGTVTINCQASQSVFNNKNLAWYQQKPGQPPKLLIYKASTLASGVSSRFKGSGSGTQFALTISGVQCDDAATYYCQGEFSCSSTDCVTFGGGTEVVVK in the records? 1.2
